Test system: SK-MEL-2 melanoma
experiment-summary: NCI-60 one-dose screen, 48 h (100 = growth as untreated, 0 = no growth, -100 = all killed)
condition-set: 10 µM unless noted
The panel holds about 83,000 compounds, 20% with a hit somewhere; the sample as a whole holds those more often.
measured-endpoint: growth (%)
// note: answer is a bare numeric in %

# annotated cases, reported growth shown
O=CCCCOCc1ccccc1	104
O=C(O)CC(C(=O)O)/C(=C\c1ccccc1)c1ccccc1 (stereo not given)	109
COC(=O)c1ccc2cc(OC)c(OC)cc2c1	134
CCn1cc(C(=O)N/N=C/c2cccc(F)c2)c(=O)c2cc(F)c(N3CCNC(C)C3)c(F)c21 (stereo not given)	104

stdin: Quick one: growth of `COC(=O)/C=C1/SC(=NCc2ccccc2)N(CCc2c[nH]c3ccccc23)C1=O` ?
stdout: 85.8

stdin: Quick one: growth of C#CCOc1cccc(Nc2ncnc3c2ncn3C2CCN(C(=O)CCl)C2)c1 (stereo not given) ?
stdout: -0.328

stdin: Quick one: growth of Cc1ccc(C2CC(c3cccc(Nc4ccncc4)c3)=Nc3c(N)nc(N)nc3N2)cc1 (stereo not given) ?
stdout: 71.1

stdin: Quick one: growth of `COc1ccc(-c2cn(Cc3cc4ccccc4s3)nn2)cc1OCCN1CCCCC1` ?
stdout: 90.8

stdin: Quick one: growth of `CC(=O)c1sc(-c2ccc(F)cc2)cc1O` ?
stdout: 107

stdin: Quick one: growth of `Ic1ccc(Nc2nc3nonc3nc2Nc2ccc(I)cc2)cc1` ?
stdout: -55.2

stdin: Quick one: growth of `O=C1Nc2ccc(Cl)cc2/C1=C/c1ccc[nH]1` ?
stdout: 96.2

stdin: Quick one: growth of `Cc1ccc(O)c(NC(=O)c2cccc(Nc3ccnc(C(F)(F)F)c3)c2)c1` ?
stdout: 82.7

stdin: Quick one: growth of `Cc1nc([P+](c2ccccc2)(c2ccccc2)c2ccccc2)c(N2CCCCC2)o1` ?
stdout: 41.2
